Test system: SFMC from patients with oJIA
Assay: Cytokine production in culture supernatants of SFMC incubated with dnaJ and restimulated with autologous feeder cells plus peptide
Assay type: cell-based, human
Conditions: Table 3; dnaJ 72 hr then restimulated with peptide; mean+SD
experimentalReadout: IFNγ

# input Entry RKAYKRLAMKYHPDR (listed as Escherichia coli) [Peptide 22, bacterial (E. coli) dnaJ peptide] has what IFNγ?
# output 20.1 + 33.5 pg/ml

# input What about this sequence? ASYYEILDVPRSASA (listed as Homo sapiens) [Peptide 2, human HSJ1 peptide, homologue of bacterial dnaJ peptide 4]
# output 51.3 + 72.4 pg/ml

# input What about this sequence? PGMVQQIQSVCMECQ (listed as Homo sapiens) [Peptide 167, human HDJ2 peptide, homologue of bacterial dnaJ peptide 174]
# output 38.3 + 61.2 pg/ml

# input What about this sequence? KRAYRRQALRYHPDK (listed as Homo sapiens) [Peptide 21, human HDJ1 peptide, homologue of bacterial dnaJ peptide 22]
# output 30.8 + 56.4 pg/ml

# input What about this sequence? KDYYQTLGLARGASD (listed as Homo sapiens) [Peptide 3, human HDJ1 peptide, homologue of bacterial dnaJ peptide 4]
# output 57.5 + 85.7 pg/ml

# input What about this sequence? KKAYRRKALQWHPDK (listed as Homo sapiens) [Peptide 20, human HSJ1 peptide, homologue of bacterial dnaJ peptide 22]
# output 25.3 + 47.4 pg/ml

# input What about this sequence? QGFFAVQQTCPHCQG (listed as Escherichia coli) [Peptide 174, bacterial (E. coli) dnaJ peptide]
# output 31.4 + 53.1 pg/ml

# input What about this sequence? FRSVSTSTTFVQGRR (listed as Homo sapiens) [Peptide 164, human HSJ1 peptide, homologue of bacterial dnaJ peptide 174]
# output 52.5 + 85.2 pg/ml

# input What about this sequence? TTYYDVLGVKPNATQ (listed as Homo sapiens) [Peptide 5, human HDJ2 peptide, homologue of bacterial dnaJ peptide 4]
# output 69.5 + 105.2@ pg/ml

# input What about this sequence? GRRITTRRIMENGQE (listed as Homo sapiens) [Peptide 176, human HSJ1 peptide, homologue of bacterial dnaJ peptide 174]
# output 45.6 + 68.3 pg/ml

# input What about this sequence? KKAYRKLALKYHPDK (listed as Homo sapiens) [Peptide 23, human HDJ2 peptide, homologue of bacterial dnaJ peptide 22]
# output 38.2 + 75 pg/ml

# input What about this sequence? QDYYEILGVSKTAEE (listed as Escherichia coli) [Peptide 4, bacterial (E. coli) dnaJ peptide]
# output 30.8 + 52.4 pg/ml

Ref: patent US7301005B2
